test system: ARK5; construct: gene NUAK1; conditions: concentration: 1 μM, replicates: in singlicate; n = 1;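 further: KINOMEscan kinase panel screen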
Threshold check on %Inh: at or above 20% gives Fulfilled, strictly below gives Not fulfilled.

Say whether Cc1ccc(NC(=O)c2cccc(N3CCCCC3)c2)cc1-c1ccc(C(=O)NCC2CC2)cc1 [GSK1917008] shows %Inh of 20% or more.
Fulfilled

Say whether Cl.O=C(Nc1ccc(Oc2ccc3[nH]c(NC(=O)c4ccco4)nc3c2)cc1)Nc1cc(C(F)(F)F)ccc1F [GW683134] shows %Inh of 20% or more.
Not fulfilled

Say whether CC(C)NCC(Cc1ccccc1)NC(=O)c1cc(Br)c(-c2ccnc3[nH]ccc23)s1.Cl.Cl (centres unmarked) [GSK1383281] shows %Inh of 20% or more.
Fulfilled

Say whether Cc1ccc(NC(=O)c2ccc(Cl)c(Cl)c2)cc1-c1ccc(C(=O)Nc2ccncc2)cc1 [GSK1398460] shows %Inh of 20% or more.
Not fulfilled

Say whether CCn1cnc2c(NCc3ccccc3)ncnc21 [SKF-96418] shows %Inh of 20% or more.
Not fulfilled

Say whether "N#CC1(c2cccc(C(=O)Nc3cccc(Oc4ccc5nc(NC(=O)C6CC6)sc5n4)c3)c2)CC1" shows %Inh of 20% or more.
Not fulfilled

Say whether Nc1ncnc2scc(-c3ccc(NC(=O)Cc4cc(F)ccc4F)cc3)c12.O=C(O)C(F)(F)F [SB-731254-M] shows %Inh of 20% or more.
Not fulfilled

Say whether O=C(Nc1n[nH]c2cc(-c3cccs3)ccc12)C1CC1 [SB-731284] shows %Inh of 20% or more.
Not fulfilled

Say whether COc1cccc(NC(=O)NCCNc2ccnc(Nc3ccc(F)cc3)n2)c1 [GSK1379879] shows %Inh of 20% or more.
Not fulfilled

Say whether Cc1cccc(Nc2nc(N[C@H]3CCCC[C@H]3N)ncc2C(N)=O)c1.Cl [GSK986310] shows %Inh of 20% or more.
Fulfilled

Say whether COc1cc(Nc2nccc(N3CCC(NC(=O)Nc4ccc5c(c4)OCO5)C3)n2)cc(OC)c1OC (centres unmarked) [GSK1379766] shows %Inh of 20% or more.
Fulfilled

Say whether "CCNc1nccc(-c2c(-c3ccc(F)cc3)ncn2C2CCN(C)CC2)n1" shows %Inh of 20% or more.
Not fulfilled

Say whether NCCC(NC(=O)c1cc(Br)c(-c2ccnc3[nH]ccc23)s1)c1ccccc1.O=C(O)C(F)(F)F.O=C(O)C(F)(F)F (centres unmarked) [GSK1307810] shows %Inh of 20% or more.
Not fulfilled

Say whether Cc1ccc(-c2ccc3occ(-c4ccc(S(C)=O)cc4)c3c2)nn1 (centres unmarked) shows %Inh of 20% or more.
Not fulfilled

Say whether Cl.N#CCc1ccc(Nc2nccc(Nc3ccc(Oc4ccccc4)cc3)n2)cc1 [GW639905] shows %Inh of 20% or more.
Not fulfilled

Say whether COc1cccc(-c2nc(-c3ccccc3)[nH]c2-c2ccncc2)c1 [SB-610250] shows %Inh of 20% or more.
Not fulfilled

Say whether CN(c1ccc(NC(=O)Nc2cccc(Cl)c2)cc1)c1ccnc(N)n1.Cl [GW830707] shows %Inh of 20% or more.
Not fulfilled
